Biological target: T1, human myostatin (mature, recombinant; R&D Systems) (human, UniProt O14793 267-375)
T1 construct: biotinylated in the mRNA display selection; also called GDF-8; mature myostatin
T1 sequence: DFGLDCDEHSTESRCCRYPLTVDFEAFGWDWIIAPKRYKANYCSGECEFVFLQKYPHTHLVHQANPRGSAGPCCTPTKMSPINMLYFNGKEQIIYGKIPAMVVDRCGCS
Assay: SPR format A, 25C
pKd: −log10 of the molar value.
Measured endpoint: pKd

Param item = ATI-1376 [40K 2-branch PEG] (designed binder, 40K 2-branch PEG on the Cys of the EGSGC tail, cysteine mutant of 3115_E06) MGVSDVPRDLEVVAATPTSLLISWDAPAGLARYYRITYGETGGNSPVQEFTVVGRGNTATISGLKPGVDYTITVYAVTIFRDGPVTWDPISINYRTEGSGCHHHHHH ; retrieve measured pKd.
8.09

Param item = ATI-1375 [40K 2-branch PEG] (designed binder, 40K 2-branch PEG on the Cys of the EGSGC tail, cysteine mutant of 3115_D04) MGVSDVPRDLEVVAATPTSLLISWDAPRGLARYYRITYGETGGNSPVQEFTVFGRGTTATISGLKPGVDYTITVYAVTIDRDGTRSFDPISINYRTEGSGCHHHHHH ; retrieve measured pKd.
7.90

Param item = ATI-1107 [40K 2-branch PEG] (designed binder, 40K 2-branch PEG on the Cys of the GSGC tail, cysteine mutant of 1979_B06) MGVSDVPRDLEVVAATPTSLLISWSLPHAGHVNYYRITYGETGGNSPVQEFTVPGRGVTATISGLKPGVDYTITVYAVTLTKSQMIHYMPISINYRTGSGCHHHHHH ; retrieve measured pKd.
6.89

Param item = 2524_C11 (designed binder) MGVSDVPRDLEVVAATPTSLLISWTLPHAGLAHYYRITYGETGGNSPVQEFTVPGRGVTATISGLKPGVDYTITVYAVTLTNSEIILYKPISINYRTEIDKPSQHHHHHH ; retrieve measured pKd.
9.21

Param item = ATI-1267 [N-ethylmaleimide] (designed binder, N-ethylmaleimide on the Cys of the EGSGC tail, cysteine mutant of 2525_D02) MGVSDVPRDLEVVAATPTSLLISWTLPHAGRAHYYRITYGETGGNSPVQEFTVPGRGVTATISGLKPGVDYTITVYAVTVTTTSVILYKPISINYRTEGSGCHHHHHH ; retrieve measured pKd.
10.24

Param item = 2524_D09 (designed binder) MGVSDVPRDLEVVAATPTSLLISWYLPYPAHMNYYRITYGETGGNSPVQEFTVPGRGLTATISGLKPGVDYTITVYAVTLTKSQILHHRPISINYRTEIDKPSQHHHHHH ; retrieve measured pKd.
9.19

Param item = ATI-1377 [40K 2-branch PEG] (designed binder, 40K 2-branch PEG on the Cys of the EGSGC tail) MGVSDVPRDLEVVAATPTSLLISWDAPKGLARYYRITYGETGGNSPVQEFTVVGRGNTATISGLKPGVDYTITVYAVTIFRDGPVTWDPISINYRTEGSGCHHHHHH ; retrieve measured pKd.
8.09
